MEASUREMENT PROTOCOL: Human HepG2 cell viability assay in 384 well format
Assay type: toxicity, cell-based
Parameters: dose 125 nL, time 70.5 hour; concentration not given beside the values
TEST CONTEXT: HepG2 cells, read-out: Inhibition
In this section, each of the compounds is paired with its reported cytotoxicity at 70.5 h.
Kindly provide the numeric value in % only, without the unit symbol.

As a guide, the following entries are already answered.
>>> print(df.to_string())
                                   compound  test_value
0               Cc1ccccc1-n1cnc(Cl)c1C(=O)O       -8.21
1  CCCOC(C)C(=O)NCc1cc2n(n1)CCCN(C1CCCCC1)C2 (stereo not given)      0.0071
2  Cc1cccc(N2CCC3(CCCN(C(=O)c4cccnc4)C3)CC2)n1       0.517
3  CN1C(=O)C2(CCN(C(=O)c3ccccc3)CC2)c2cc(F)ccc21       -7.93

Consider the record given below.
# input Recorded cytotoxicity at 70.5 h for Cc1nc(C(=O)N2CCCC(n3cncn3)C2)cs1 (stereo not given) , please?
# output -3.83

====

Catalogue of cytotoxicity at 70.5 h readings, one per entry.
MEASUREMENT PROTOCOL: Human HepG2 cell viability assay in 384 well format
Assay type: toxicity, cell-based
Design: dose 125 nL, time 70.5 hour; concentration not given beside the values
TEST CONTEXT: HepG2 cells, read-out: Inhibition
Just so you know, I need the unit written after the number.

In [3]: df
Out[3]:
                                   compound                 measure  test_value
0      O=C(NCCN1CCNC1=O)c1cnc(-c2cccnc2)nc1  cytotoxicity at 70.5 h      -3.28%
1  CC(C)C1CN(Cc2nccn2C)CCC(=O)N1CC1CC1 (configuration not stated)  cytotoxicity at 70.5 h      -2.87%
2  Cc1nc2cc(-c3nccn3C)nn2c(N2CCCC(CO)C2)c1C (configuration not stated)  cytotoxicity at 70.5 h       2.86%
3  CS(=O)(=O)N1Cc2nccn2CC(CN2CCCC2=O)C1 (configuration not stated)  cytotoxicity at 70.5 h        1.5%
4  Cc1nnc(NCc2ccc(N3CCC(CO)CC3)cc2)c(C#N)c1C  cytotoxicity at 70.5 h       -1.7%

# input Any idea what its cytotoxicity at 70.5 h is? The compound is CC(CCS(C)(=O)=O)NC(=O)NCc1ccc2c(c1)CCC2 (configuration not stated)
# output -6.48%

# input Which measured cytotoxicity at 70.5 h value corresponds to Cc1nc2n(n1)CC(NCCCc1nc(-c3cccs3)no1)CC2 (configuration not stated) ?
# output 4.3%

====

# cytotoxicity at 70.5 h annotations
MEASUREMENT PROTOCOL: Human HepG2 cell viability assay in 384 well format
Format: toxicity, cell-based
Set-up: dose 125 nL, time 70.5 hour; concentration not given beside the values
TEST CONTEXT: HepG2 cells, read-out: Inhibition
Provide the reading as a plain figure in %.

In [3]: df
Out[3]:
                        compound  test_value
0  CCc1c(C)n(C)c2nc3ccccc3n2c1=O        8.75

Consider the record given below.
# input Quick check: cytotoxicity at 70.5 h of `Cc1cccc(N2CCC3(CCCN3Cc3cn(C)nc3C)CC2)n1` ?
# output -9.08

====

MEASUREMENT PROTOCOL: Human HepG2 cell viability assay in 384 well format
Type: toxicity, cell-based
Design: dose 125 nL, time 70.5 hour; concentration not given beside the values
TEST CONTEXT: HepG2 cells, read-out: Inhibition
Below, each entry is listed with its recorded cytotoxicity at 70.5 h.
Your answer should be a plain number; it is taken to be in %.

>>> df
                                 molecule                 measure  test_value
0  CS(=O)(=O)NCCNC(=O)c1cnc(-c2ccccc2)nc1  cytotoxicity at 70.5 h       -4.82

# input Query: cytotoxicity at 70.5 h; subject: CC(NC(=O)NCCCn1cccn1)c1ccncc1 (stereo not given)
# output -10.8

# input Please give the measured cytotoxicity at 70.5 h for this molecule: `CCCN(CC(F)F)C(=O)CCc1c(C)nc2cc(O)nn2c1C`
# output 23.2

# input Return reported cytotoxicity at 70.5 h; argument: COc1ncccc1NC(=O)NC(C)c1nncn1C (stereo not given)
# output -5.01

====

MEASUREMENT PROTOCOL: Human HepG2 cell viability assay in 384 well format
Format: toxicity, cell-based
Parameters: dose 125 nL, time 70.5 hour; concentration not given beside the values
TEST CONTEXT: HepG2 cells, read-out: Inhibition
Reported cytotoxicity at 70.5 h values for a set of compounds
# value in %; strip the unit string

# input Give its cytotoxicity at 70.5 h value. Item: CSc1ncccc1C(=O)N1CCC2(CC1)OCCCC2O (configuration not stated)
# output -3.78

# input What value of measured cytotoxicity at 70.5 h is listed for Cn1cc(C2CCCN2C(=O)c2cnc(-c3cccs3)s2)cn1 (configuration not stated) ?
# output 22.5

# input Data request, read-out cytotoxicity at 70.5 h, for `Cc1cc(-n2c(C)cn(CN(C)CC3CC3)c2=O)no1`
# output -1.13

# input What measured cytotoxicity at 70.5 h goes with `Cc1nn(C)c2nc(O)cc(C(F)(F)C(F)(F)F)c12` ?
# output 0.0459

# input Look up cytotoxicity at 70.5 h for this compound: Cc1cc(NC(=O)CNc2cccc(C(=O)N3CCCC(O)C3)c2)no1 (configuration not stated)
# output -3.66

====

MEASUREMENT PROTOCOL: Human HepG2 cell viability assay in 384 well format
Type: toxicity, cell-based
Parameters: dose 125 nL, time 70.5 hour; concentration not given beside the values
TEST CONTEXT: HepG2 cells, read-out: Inhibition
MEASURE: cytotoxicity at 70.5 h (%)
Enter your answer as a number in %; do not include the unit.

Here is how some molecules turned out for cytotoxicity at 70.5 h.
                                   molecule  test_value
0  COC[C@H]1CC[C@H]2[C@H](CCN2C(=O)c2ccncc2F)O1      -0.359
1            COc1cc(CNC(=O)COC2CCCCC2)ccc1O       -4.46
2         CNc1nc(CNC(=O)Nc2cccc(Cl)c2Cl)cs1       -1.34
3          O=C(CCc1ccsc1)NS(=O)(=O)Cc1ccon1      -0.591
4  O=C(O)[C@]12CCCN(Cc3cccnc3)[C@@H]1CCN(c1cnccn1)C2        2.83
5           COc1ccc(C[C@H]2CNCC[C@H]2OC)cc1       -6.44
6  N#Cc1cccc(NC(=O)N2CCCC(N3CCCC3=O)C2)c1 (centres undefined)       0.781
7  Cc1noc(C)c1CSC1CCCN(c2cnn(C)c2)C1=O (centres undefined)        5.52
8  Cc1ccc(Cl)cc1N1CCC(CNC(=O)CC(F)(F)F)C1 (centres undefined)        1.39
9           CCc1nc(CNc2nc3c(s2)c(C)nn3C)cs1        -3.7

# input So what does the record say about cytotoxicity at 70.5 h for Cc1cnn(C2CCCN(C(=O)C3=NN(C)C(=O)CC3)C2)c1 (centres undefined) ?
# output 22.6

# input What value of cytotoxicity at 70.5 h has been recorded for this entry: CC(C)(C)C(O)CN1CCN(CC(=O)NCC(F)(F)F)CC1 (centres undefined)
# output 13.1

# input Please look up its cytotoxicity at 70.5 h: `O=C(c1cnc(Nc2ccccc2)nc1)N1CCC(O)(CO)CC1`
# output -6.53

# input GET /values?readout=cytotoxicity at 70.5 h&item= `O=C(NCC(F)F)c1ccc(S(=O)(=O)NCCc2ccncc2)cc1`
# output -11.1

====

Reported cytotoxicity at 70.5 h by item:
MEASUREMENT PROTOCOL: Human HepG2 cell viability assay in 384 well format
Assay type: toxicity, cell-based
Parameters: dose 125 nL, time 70.5 hour; concentration not given beside the values
TEST CONTEXT: HepG2 cells, read-out: Inhibition
Answer in %, number only, no unit symbol.

                                   molecule  test_value
0            Cc1nnc(CSc2ccc(C(F)(F)F)cn2)o1        2.72
1      CC(C)c1cc(N2CCC3(CC2)CN(C)CCN3C)ncn1       -4.93
2  CC(C)c1ncc2c(n1)CN(Cc1nc(-c3ccsc3)no1)CC2       -13.7
3  CC(C)Nc1cc(N2CCN(Cc3ccccc3)C(CCO)C2)ncn1 (centres undefined)       -1.73
4  O=C(c1nnn(-c2ccc(Cl)cc2)n1)N(CCO)Cc1ccccc1        -1.6

# input Reported cytotoxicity at 70.5 h, molecule `CCC(=O)N1CCC(c2ncncc2C)CC1` : ____
# output -1.94

# input // query cytotoxicity at 70.5 h value for entry COc1ccc(N2CCN(Cc3nc(CSC)no3)C(C)C2=O)cc1 (centres undefined)
# output -21.8

# input Requested read-out: cytotoxicity at 70.5 h. Entry: `Cc1ccc(CN(C)C(=O)Cn2nc(-c3ccc(F)cc3)oc2=O)cc1`
# output -7.04

# input # lookup: cytotoxicity at 70.5 h of `N#Cc1cccc(OC2CCN(C(=O)c3cncc(O)c3)CC2)c1`
# output -2.58

Data credit: ChEMBL document CHEMBL3507680
